Reported koff by item:
target_entity: T1, his-tagged soluble human OX40 (huOX40-6xhis) (human, UniProt P43489 29-214)
T1 construct: made in-house; also called Human-OX40-6XHIS; hOX40; not shown: hexahistidine tag
T1 sequence: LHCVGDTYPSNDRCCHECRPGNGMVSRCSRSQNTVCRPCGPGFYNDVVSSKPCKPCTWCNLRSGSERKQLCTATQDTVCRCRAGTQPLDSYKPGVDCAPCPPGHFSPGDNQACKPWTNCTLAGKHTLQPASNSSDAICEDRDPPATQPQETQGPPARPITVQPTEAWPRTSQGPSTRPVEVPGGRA
experiment: SPR, mAb captured on anti-human CH1, OX40-6XHIS analyte, 1:1 fit
API: value field is a number in s⁻¹; no unit string.

Here's what some known entries look like.
3F4 (antibody, V domains shown, also called 3F4.G11.D2; 3F4.G11) VH: QVQLVQSGAEVKKPGASVKVSCKASGNTFTSYDVNWVRQATGQGLEWMGWMNPNSGNTGYAPKFQGRVTMTRNTSISTAYMELSSLRSEDTAVYYCARIYSSSYNWFDPWGQGTLVTVSS VL: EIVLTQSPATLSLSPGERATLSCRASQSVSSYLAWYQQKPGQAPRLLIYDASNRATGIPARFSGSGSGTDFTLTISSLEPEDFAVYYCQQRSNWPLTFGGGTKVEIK : 0.000379
6E1 (antibody, V domains shown, also called 6E1.A12.A2; 6E1.A12) VH: QVQLVESGGGVVQPGRSLRLSCAASGFTFSSFAMHWVRQAPGKGLEWVTVISYDGSIKYYTDSVKGRFTFSRDNSKNTLYLQMNSLRAEDTAVYYCTRDGNYGSARYFQHWGQGTLVTVSS VL: EIVLTQSPATLSLSPGERATLSCRASQSVSSYLAWYQQKPGQAPRLLIYDASNRATGIPARFSGSGSGTDFTLTISSLEPEDFAVYYCQQRSNWPYTFGQGTKLEIK : 0.00141
18E9 (antibody, V domains shown, human mAb from hybridoma; also called 18E9.G5.H4; 18E9.G5) VH: EVQLVQSGGGLVHPGGSLRLSCAHSGFTFTSSAMHWVRQAPGKGLEWISAIGTGGDTYYADSVKGRFTISRDNAKNSLYLQINSLRAEDMAVYYCARDFYDILTGIFDYWGQGTLVTVSS VL: DIQMTQSPSSVSASVGDRVTITCRASQGISSWLAWYQHKPGKAPKLLIYAASSLQSGVPSRFSGSGSGTDFTLTISSLQPEDFATYYCQQANSFPSTFGQGTKVEIK : 0.000139

Request the reported koff associated with 20C1 (antibody, V domains shown, also called 20C1.F2.D1; 20C1.F2) VH: EAQLVQSGGGLVHPGGSLRLSCADSGFTFSSYAMYWVRQAPGKGLEWVSAIDTDGGTFYADSVRGRFTISRDNAKNSLYLQMNGLRAEDMAVYFCARLGEGYFFDYWGQGTLVTVSS VL: EIVLTQSPATLSLSPGERATLSCRASQSVSSYLAWYQQKPGQAPRLLIYDASNRATGIPARFSGSGSGTDFTLTISSLEPEDFAVYYCQQRSNWPPTFGGGTKVEIK
0.000209
